# Test system: NCI/ADR-RES ovarian
# Method notes: NCI tumour cell line growth inhibition, 48 h
Where a SMILES comes first, the peptide text is derived from it. Bridges are numbered along the chain shown (N, C = ends).

# Compound, TGI
measured = [
    ("CC(Cl)(CCC(Cl)C(C)(C)Cl)C(=O)CBr (centres undefined)", "74.2 µM"),
    ("CC(C)(O)c1cc(Nc2cc(Oc3cn(C4CC4)nc3C3CCOCC3)ccn2)ccn1", "> 100 µM"),
    ("S=C(Nc1ccc(-c2nc3ccccc3s2)cc1)Nc1ccc(-c2nc3ccccc3s2)cc1", "52 µM"),
    ("C=C1C(=O)O[C@@H]2C[C@@H](C)[C@@H]3C=CC(=O)[C@@]3(C)[C@@H](OC(=O)CCCC(=O)O[C@H]3[C@@H]4C(=C)C(=O)O[C@@H]4C[C@@H](C)[C@@H]4C=CC(=O)[C@]43C)[C@H]12", "4.12 µM"),
    ("O=C1C=C(NCCc2ccccc2)c2ccccc2C1=O", "23 µM"),
    ("C/C(CC(O)(C(F)(F)F)C(F)(F)F)=N\\O", "> 10 µM"),
    ("COc1cccc(C2C(C#N)=C(N)Oc3cc(OCCCCCC[P+](c4ccccc4)(c4ccccc4)c4ccccc4)ccc32)c1 (centres undefined)", "78.3 µM"),
    ("CCOc1ccc2cc(-c3nn(CC4CCN(C)CC4)c4ncnc(N)c34)ccc2c1", "28.2 µM"),
    ("OC[C@H]1N[C@H](CO)[C@@H](O)[C@H]1O", "> 100 µM"),
    ("CC(C)C(Br)C(=O)NCC(=O)O (centres undefined)", "> 100 µM"),
    ("CSC(=S)NCc1cn(C)c2ccccc12", "> 100 µM"),
    ("CCNc1ccc2c(c1)C(=O)N(OS(C)(=O)=O)C2=O", "> 100 µM"),
    ("C=CCN1C(=O)C[C@H](Cc2ccccc2)NC(=O)C[C@H](Cc2ccccc2)N(CC=C)C(=O)C[C@H](Cc2ccccc2)NC(=O)C[C@@H]1Cc1ccccc1", "> 100 µM"),
    ("O=C(CC1(O)CCCCC1)OC1CCCC1", "> 100 µM"),
    ("Cc1cc(C)c(S(=O)(=O)N(CCCCCN)OCCCN)c(C)c1", "34.3 µM"),
    ("CCOC(=O)C(Cc1cc(OC)c(CC(C(=O)OCC)C(=O)OCC)cc1OC)C(=O)OCC", "> 100 µM"),
    ("COC(=O)[C@@H]1C=CCN1S(=O)(=O)c1ccc(C)cc1", "> 100 µM"),
    ("CSCCC(NC(=O)C(Cc1c[nH]c2ccccc12)NC(=O)CCNC(=O)OC(C)(C)C)C(=O)NC(CC(=O)O)C(=O)NC(Cc1ccccc1)C(N)=O (centres undefined)", "> 50 µM"),
    ("COc1ccc(-c2nc(-c3cnccn3)n(C/C=C/c3ccccc3)n2)cc1", "> 100 µM"),
    ("CN1CCC(O)(OC(=O)C(c2ccccc2)C2(O)CCCC2)CC1 (centres undefined)", "> 100 µM"),
    ("C[C@@H]1C[C@@H]2OC(=O)[C@]3(C)[C@H]2[C@@H](OC3(C)O)[C@]2(C)C(=O)C=C[C@@H]12 (some centres undefined)", "> 100 µM"),
    ("Fc1ccc(-c2ncn(C3CCNCC3)c2-c2ccnc(Oc3ccc(Cl)cc3)n2)cc1", "> 22.7 µM"),
    ("OC(Cc1cccc2ccccc12)CN1CCC(c2ccccc2)CC1 (centres undefined)", "28.5 µM"),
    ("CSCc1ncc(-c2ccc(C(F)(F)F)cc2)c(NC2CCCCCC2)n1", "> 10 µM"),
    ("CCOC(=O)C1=C(N2CCCC2)C(=O)C(C(=O)OCC)C1 (centres undefined)", "> 100 µM"),
    ("N#Cc1nc(CN2C(=O)c3ccccc3C2=O)oc1N", "> 100 µM"),
    ("CN(C)CCN=c1nc2c(c(N)n1-c1ccccc1)c(=S)n(-c1ccccc1)c(=S)n2-c1ccccc1", "26.7 µM"),
    ("CC(=O)c1c(-c2ccco2)c(C#N)c(=S)n(C2OC(CO)C(O)C(O)C2O)c1C (centres undefined)", "> 100 µM"),
    ("COc1ccc(/C=C/C(=O)c2cc(CN(C)C)c(O)c(CN(C)C)c2)cc1", "> 100 µM"),
    ("C#CC(O)/C=C/C(O)CCCC(O)CC#CC(O)C#CCCCCC(O)/C=C/CCCC(=O)CCCCCCCCCCCCCCCC(O)C(O)C#CC(=O)O (centres undefined)", "> 25 µM"),
    ("CCN(CC)c1ccc(/C=N/N=C(N)N)cc1", "29.8 µM"),
    ("COc1ccc(C2=NNC(c3sc(Cl)nc3Cl)C2)cc1 (centres undefined)", "> 100 µM"),
    ("Cc1cc(C)nc(NC(=O)COc2ccc(Cl)cc2)c1", "> 100 µM"),
    ("O=C1CC(c2cccc([N+](=O)[O-])c2)C2(C(=O)NC(=S)NC2=O)C(c2cccc([N+](=O)[O-])c2)C1 (centres undefined)", "> 100 µM"),
    ("CCOC(=O)c1sc(NC(=O)COc2ccc(/C=C3\\CCc4cc(OC)ccc4C3=O)cc2)nc1C", "37.5 µM"),
    ("COC(=O)c1c(C(=O)O)c(-c2ccccc2)c(-c2ccccc2)c(-c2ccccc2)c1-c1ccccc1", "> 100 µM"),
    ("NCCCNCCSP(=O)(O)O", "> 750 µM"),
    ("COc1c(OC2OC(C)C(O)C(O)C2O)c(OC)c2oc(-c3ccc(O)cc3)cc(=O)c2c1O (centres undefined)", "> 100 µM"),
    ("COC(=O)C1CCC(=O)NCCCCC(NC(=O)C(N)CC(=O)O)C(=O)N1 (stereo not drawn) (H-Asp-Lys-Glu-OMe; lactam 2-3; configuration not given here)", "> 100 µM"),
]
